- protocol-description: chemical genetic growth profiling, strain panel (AID 1159580);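 note: tested at 20 µM; growth read once vehicle control cultures reached saturation at 30 °C; 1 = growth at the plate median or of vehicle wells; lower values mean less growth of the strain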
- test-context: S. cerevisiae deletion strains, growth OD, locus YNL153C, strain GIM3, hits give low values
Among all 5,500 compounds or so, about 2,000 (36%) were called active. Not shown: some 18% with an inconclusive outcome. Some of the results follow.
measurement-name: normalized growth

compound="CC1(C)C2CC(=O)O[C@@]3(C)C4=CC(=O)O[C@@H](c5ccoc5)[C@]4(C)CCC3[C@@]2(C)C=C[C@H]1O (stereo partly specified)" value="1 (inactive)"
compound=O=C(O)CC(CC(=O)O)c1ccc(C(F)(F)F)cc1 value="0.99 (inactive)"
compound=COC(=O)c1ccc(C(=O)OC)nc1 value="1 (inactive)"
compound=COc1ccccc1-c1cc(=O)c2c(OC)cccc2o1 value="0.974 (inactive)"
compound=COC(=O)c1ccc(-c2ccccc2F)cc1 value="0.968 (inactive)"
compound=COc1ccccc1-c1cc(=O)c2cccc(OC)c2o1 value="0.903 (inactive)"

----------
- protocol-description: chemical genetic growth profiling, strain panel (AID 1159580)
- test-context: S. cerevisiae deletion strains, growth OD, locus YLL001W, strain dnm1
The campaign covered roughly 5,500 compounds. About 2,000 (36%) were called active. Roughly 18% stayed inconclusive and do not appear here. Cut-off read from the data, not from the text of the source: active = normalized growth mostly below about 0.91 (no sharp cut-off); inconclusive = no clear call, values can overlap the other calls; inactive = mostly above about 0.92. The list shows a part of the results.
Labels: active, inactive

molecule=CC[C@]12CCCN3CCc4c(n(c5ccccc45)C(=O)C1)[C@@H]32 category_label=inactive
molecule=CCOC(=O)C1=C[C@]2(CC)CCCN3CCc4c(n1c1ccccc41)[C@@H]32 category_label=inactive
molecule=COc1ccc(-c2cc(C(F)F)nn2-c2ccc(S(N)(=O)=O)cc2)cc1F category_label=inactive
molecule=C=CC1=C(C)/C(=C/c2[nH]c(Cc3[nH]c(/C=C4\NC(=O)C(C)=C4C=C)c(C)c3CCC(=O)O)c(CCC(=O)O)c2C)NC1=O category_label=inactive
molecule="C#C[C@]1(O)CCC2C3CCc4cc(OC)ccc4C3CC[C@@]21C (stereo not given in full)" category_label=inactive
molecule=CC12CCC(CC1)C(C)(C)O2 category_label=inactive
molecule="CC12CCC3C(CC=C4CC(O)CCC43C)C1CCC2=O (stereo not given)" category_label=active
molecule="CC(=O)O[C@H]1CC[C@@]2(C)C(=CCC3C2CC[C@]2(C)C(=O)CCC32)C1 (stereo not given in full)" category_label=inactive
molecule="COc1ccc(C[C@H](N)C(=O)N[C@@H]2[C@@H](CO)OC(n3cnc4c(N(C)C)ncnc43)[C@@H]2O)cc1 (stereo not given in full)" category_label=inactive
molecule=COc1ccc(C=CC(=O)c2ccc(O)cc2O)cc1OC category_label=inactive

----------
- protocol-description: chemical genetic growth profiling, strain panel (AID 1159580);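 note: tested at 20 µM; growth read once vehicle control cultures reached saturation at 30 °C; 1 = growth at the plate median or of vehicle wells; lower values mean less growth of the strain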
- test-context: S. cerevisiae deletion strains, growth OD, locus YIL066C, strain RNR3
Screen size: about 5,500 compounds; about 2,000 (36%) were called active. Not shown: some 18% with an inconclusive outcome. No stated cut-off is given here; in the data, active means normalized growth mostly below about 0.91 (no sharp cut-off); inconclusive means no clear call, values can overlap the other calls; inactive means mostly above about 0.92. The list shows a part of the results.
Possible outcomes: active, inactive

molecule="CC(=O)O[C@H]1C[C@@H](OC(C)=O)C(C)(C)C2C[C@@H](OC(C)=O)[C@]3(C)C(CC[C@@]4(C)[C@H](c5ccoc5)C(=O)[C@H]5O[C@]543)[C@]21C (some centres undefined)" category_label=inactive
molecule=O=C(O)CNCP(=O)(O)O category_label=inactive
molecule="OCC(S)CS (centres undefined)" category_label=inactive
molecule="CCCNC(C)C(=O)Nc1ccccc1C (centres undefined)" category_label=inactive
molecule="CC(=O)OCC(=O)[C@@]12OC(C)(C)O[C@@H]1CC1C3C[C@H](F)C4=CC(=O)C=C[C@]4(C)[C@@]3(F)[C@@H](O)C[C@@]12C (some centres undefined)" category_label=inactive
molecule=COP(=S)(OC)Oc1ccc(SC)c(C)c1 category_label=inactive
molecule="CCN(CC)CCOC(=O)C(Cc1cccc2ccccc12)CC1CCCO1 (centres undefined)" category_label=inactive
molecule="CN1CCc2cccc3c2C1Cc1ccc(O)c(O)c1-3 (centres undefined)" category_label=inactive
molecule="CC1(C)CC2C1CCC1(C)OC2(C)CCC1O (centres undefined)" category_label=inactive
molecule="CC[C@@H](C(=O)O)[C@@H]1O[C@@H]([C@@H](C)[C@H](O)[C@H](C)C(=O)[C@H](CC)[C@H]2O[C@]3(C=C[C@@H](O)[C@]4(CC[C@@](C)(C5CC[C@](O)(CC)[C@H](C)O5)O4)O3)[C@H](C)C[C@@H]2C)[C@@H](C)C[C@H]1C (some centres undefined)" category_label=active
molecule=CCOP(=S)(OCC)Oc1ccc2c(C)c(Cl)c(=O)oc2c1 category_label=inactive
molecule="CC12CCCC(O)(C1)C1CC(C)(C)C1CC2 (centres undefined)" category_label=inactive
molecule="Cc1cccc(CN2CCN(C(c3ccccc3)c3ccc(Cl)cc3)CC2)c1 (centres undefined)" category_label=active
molecule="CC(C)C1=CC2=CCC3[C@](C)(CCC[C@]3(C)C(=O)O)C2CC1 (some centres undefined)" category_label=inactive
molecule="CC(=O)N[C@@H]1[C@@H](C(O)[C@H](O)CO)O[C@](O)(C(=O)O)C[C@@H]1O (some centres undefined)" category_label=inactive
molecule="C[C@@H]1CC2C3CCC4=CC(=O)C=C[C@]4(C)[C@@]3(F)[C@@H](O)C[C@]2(C)[C@@]1(O)C(=O)COP(=O)(O)O (some centres undefined)" category_label=inactive
molecule="COc1cc2c3cc1Oc1cc(ccc1O)OC1c4c(cc(OC)c(O)c4Oc4ccc(cc4)CC3N(C)CC2)CCN1C (centres undefined)" category_label=inactive
molecule="CCCCC(CC)CN=C(N)NC(N)=NCCCCCCN=C(N)NC(N)=NCC(CC)CCCC (centres undefined)" category_label=active
molecule=COc1ccc2c(c1O)-c1c(OC)c(OC)cc3c1[C@H](C2)N(C)CC3 category_label=inactive

----------
- protocol-description: chemical genetic growth profiling, strain panel (AID 1159580);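 note: tested at 20 µM; growth read once vehicle control cultures reached saturation at 30 °C; 1 = growth at the plate median or of vehicle wells; lower values mean less growth of the strain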
- test-context: S. cerevisiae deletion strains, growth OD, locus YGL086W, strain mad1, hits give low values
In all, about 5,500 compounds went through this assay and about 2,000 (36%) were called active. Roughly 18% stayed inconclusive and do not appear here. The list shows a part of the results.
measurement-name: normalized growth

compound=O=C(O)CNCP(=O)(O)O measurement_name="normalized growth" value="1 (inactive)"
compound="COc1ccc(C[C@H](N)C(=O)N[C@@H]2[C@@H](CO)OC(n3cnc4c(N(C)C)ncnc43)[C@@H]2O)cc1 (stereo not given in full)" measurement_name="normalized growth" value="1.02 (inactive)"
compound=CCOC(=O)C1=C[C@]2(CC)CCCN3CCc4c(n1c1ccccc41)[C@@H]32 measurement_name="normalized growth" value="0.948 (inactive)"
compound=CC[C@]12CCCN3CCc4c(n(c5ccccc45)[C@](O)(C(=O)OC)C1)[C@@H]32 measurement_name="normalized growth" value="0.977 (inactive)"
compound=CCn1cc(C(=O)O)c(=O)c2cnc(N3CCCC3)nc21 measurement_name="normalized growth" value="1 (inactive)"
compound="Nc1nc(N)c2nc(CNc3ccc(C(=O)NC(CCC(=O)O)C(=O)O)cc3)cnc2n1 (stereo not given)" measurement_name="normalized growth" value="0.994 (inactive)"
compound=CCn1cc(C(=O)O)c(=O)c2cnc(N3CCNCC3)nc21 measurement_name="normalized growth" value="1.01 (inactive)"
compound=c1ccc2[nH]c(-c3cscn3)nc2c1 measurement_name="normalized growth" value="0.959 (inactive)"
compound="Nc1nc2c(c(=O)[nH]1)N(C=O)C(CNc1ccc(C(=O)N[C@@H](CCC(=O)O)C(=O)O)cc1)CN2 (stereo not given in full)" measurement_name="normalized growth" value="1 (inactive)"
compound=CCn1cc(C(=O)O)c(=O)c2cc3c(cc21)OCO3 measurement_name="normalized growth" value="1.01 (inactive)"

----------
- protocol-description: chemical genetic growth profiling, strain panel (AID 1159580);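 note: tested at 20 µM; growth read once vehicle control cultures reached saturation at 30 °C; 1 = growth at the plate median or of vehicle wells; lower values mean less growth of the strain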
- test-context: S. cerevisiae deletion strains, growth OD, locus YNL175C, strain NOP13, hits give low values
About 2,000 (36%) of roughly 5,500 compounds were called active. Inconclusive results (about 18%) are left out. This is one part of the list.
normalized growth values for the molecules below.
measurement-name: normalized growth

molecule=CCCN1CC[C@@H]2c3cc(O)ccc3CC[C@@H]21 value=1.01
molecule=N#Cc1c(-c2ccccc2)no[n+]1[O-] value=0.774
molecule="CC(COc1ccccc1)N(CCCl)Cc1ccccc1 (configuration not stated)" value=0.996
molecule=NCCCCCCCCCCN value=1.01
molecule=CN(Cc1cnc2nc(N)nc(N)c2n1)c1ccc(C(=O)N[C@H](CCC(=O)O)C(=O)O)cc1 value=1
molecule=CCCN1CCc2cccc3c2[C@H]1Cc1ccc(O)c(O)c1-3 value=0.96
molecule="CC1=C(C(=O)O)N2C(=O)[C@@H](NC(=O)C(N)C3=CCC=CC3)[C@H]2SC1 (some centres not stated)" value=1.02
molecule="CN1CCc2cccc3c2C1Cc1ccc(O)c(O)c1-3 (configuration not stated)" value=0.96
molecule="CN(C)CCCO[C@@H]1[C@H]2OC(C)(C)O[C@H]2O[C@@H]1C(O)CO (some centres not stated)" value=1.01
molecule=COc1ccc2c(c1O)-c1cccc3c1[C@@H](C2)N(C)CC3 value=1.02
molecule=CCN(CCCl)Cc1ccccc1Br value=1
molecule=COC(=O)[C@@H](N)CCCN=C(N)N[N+](=O)[O-] value=1
